Data credit: patent US20240199587A1

Target sequence: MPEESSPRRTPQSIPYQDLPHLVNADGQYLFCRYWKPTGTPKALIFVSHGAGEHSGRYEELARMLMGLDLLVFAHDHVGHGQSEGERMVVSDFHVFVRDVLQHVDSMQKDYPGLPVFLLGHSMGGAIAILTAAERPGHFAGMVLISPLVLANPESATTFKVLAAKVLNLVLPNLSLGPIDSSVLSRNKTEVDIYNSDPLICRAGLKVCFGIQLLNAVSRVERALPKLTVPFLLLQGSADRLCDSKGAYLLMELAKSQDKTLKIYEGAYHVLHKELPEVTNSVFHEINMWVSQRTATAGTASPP
ENDPOINT: pIC50
Units for pIC50: none; it is -log10 of a concentration expressed in mol/L.

Data request: What value of pIC50 has been recorded for this entry: `O=C(c1ccc(F)cc1C(F)(F)F)N1CC2(C1)CN(C(=O)N1CC3(CC(n4cnc(C5CC5)n4)C3)C1)C2`
Data returned: 7.45

Data request: What value of pIC50 has been recorded for this entry: O=C(N1CC2(CC(n3cnc(C4CC4)n3)C2)C1)N1CCC(OCC2(C(F)(F)F)CC2)C2(CC2)C1 (centres unmarked)
Data returned: 6.36

Data request: What value of pIC50 has been recorded for this entry: `O=C(N1CC(c2ccc(-c3ccc(Cl)cc3F)cn2)C1)N1CC2(CC(c3ccc(C(F)(F)F)nc3)C2)C1`
Data returned: 6.75

Data request: What value of pIC50 has been recorded for this entry: O=C(N1CC2(CC(n3cnc(C4(O)CC4)n3)C2)C1)N1CC2(CC[C@H](Cc3ncc(F)cc3F)C2)C1 (stereo in doubt)
Data returned: 7.61

Data request: What value of pIC50 has been recorded for this entry: CS(=N)(=O)c1ccc(CC2CC3(C2)CN(C(=O)N2CC4(CC(n5cnc(C6CC6)n5)C4)C2)C3)cc1 (centres unmarked)
Data returned: 8.53

Data request: What value of pIC50 has been recorded for this entry: `O=C(N1CC2(CC(n3cnc(C(F)(F)F)n3)C2)C1)N1CC2(CN(Cc3ccc(S(=O)(=O)C(F)(F)F)cc3)C2)C1`
Data returned: 8.62

Data request: What value of pIC50 has been recorded for this entry: `Cc1cc(C(=O)N2CC3(CC(n4cnc(C5CC5)n4)C3)C2)nnc1OCC1(C(F)(F)F)CC1`
Data returned: 5.55

Data request: What value of pIC50 has been recorded for this entry: `O=C(N1C[C@H]2C[C@H](Oc3ccc(F)c(OC(F)(F)F)c3)C[C@H]2C1)N1CC2(CC(n3cnc(C4CC4)n3)C2)C1`
Data returned: 8.89

Data request: What value of pIC50 has been recorded for this entry: `O=C(N1C[C@H]2C[C@H](Oc3ccc(F)c(F)c3)C[C@H]2C1)N1CC2(CC(n3cnc(C4CC4)n3)C2)C1`
Data returned: 8.13

Data request: What value of pIC50 has been recorded for this entry: `O=C(N1CC2(CC(n3cnc(C4CC4)n3)C2)C1)N1CC2(C1)CN(S(=O)(=O)c1ccc(C(F)(F)F)nc1)C2`
Data returned: 7.76

Data request: What value of pIC50 has been recorded for this entry: `CC(C)(C)c1nc(-c2ccc(C(=O)N3CC4(CC(n5nccc5C5(C)CC5)C4)C3)cc2)no1`
Data returned: 7.48

Data request: What value of pIC50 has been recorded for this entry: `CC(C)(C)c1nc(-c2ccc(C(=O)N3CC4(CC(n5ncc6c5CCCC6)C4)C3)cc2)no1`
Data returned: 6.35

Data request: What value of pIC50 has been recorded for this entry: `O=C(N1CC2(CC(n3cnc(C4CC4)n3)C2)C1)N1CC2(C1)CN(S(=O)(=O)NCc1ccc(F)cc1)C2`
Data returned: 7.76

Data request: What value of pIC50 has been recorded for this entry: `CS(=O)(=O)c1cc(C(F)(F)F)ccc1C1CC2(C1)CN(C(=O)N1CC3(CC(Cc4ccc(F)cc4F)C3)C1)C2`
Data returned: 6.08

* * *

TESTED ON: UniProtKB Q99685
Sequence (Q99685 1-303): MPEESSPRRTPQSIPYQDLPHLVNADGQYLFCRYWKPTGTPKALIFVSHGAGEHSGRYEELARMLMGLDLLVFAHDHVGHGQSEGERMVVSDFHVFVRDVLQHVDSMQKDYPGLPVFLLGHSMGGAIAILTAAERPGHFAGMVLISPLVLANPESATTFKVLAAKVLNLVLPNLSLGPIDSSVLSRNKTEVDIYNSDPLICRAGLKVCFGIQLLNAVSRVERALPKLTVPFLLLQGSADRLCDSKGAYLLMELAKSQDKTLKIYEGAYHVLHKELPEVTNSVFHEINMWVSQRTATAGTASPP
ENDPOINT: pIC50
Units for pIC50: none; it is -log10 of a concentration expressed in mol/L.

Data request: What reported pIC50 corresponds to `O=C(NCC(F)(F)F)c1cnn(C2CN(C(=O)N3CC4(CC(n5cnc(C6CC6)n5)C4)C3)C2)c1` on UniProtKB Q99685?
Data returned: 6.70

Data request: What reported pIC50 corresponds to `O=C(N1CC(C23CC(c4nnc(C5CC5)o4)(C2)C3)C1)N1CC2(CC(n3cnc(C4CC4)n3)C2)C1` on UniProtKB Q99685?
Data returned: 8.01

Data request: What reported pIC50 corresponds to `O=C(N1CC(c2ccc(NCC3(C(F)(F)F)CC3)nc2)C1)N1CC2(CC(n3cnc(C4(O)CC4)n3)C2)C1` on UniProtKB Q99685?
Data returned: 8.95

Data request: What reported pIC50 corresponds to `O=C(N1CC(Oc2ccc(Cl)cc2F)C1)N1CC2(CC(n3cnc(C4CC4)n3)C2)C1` on UniProtKB Q99685?
Data returned: 8.02

Data request: What reported pIC50 corresponds to `CC1(Cc2nnc(-c3ccc(C4CN(C(=O)N5CC6(CC(n7cnc(C(F)(F)F)n7)C6)C5)C4)cc3)[nH]2)CC1` on UniProtKB Q99685?
Data returned: 8.26

Data request: What reported pIC50 corresponds to `O=C(N1CC2(CC(n3cnc(C4(O)CC4)n3)C2)C1)N1CC2(CC[C@@H](Cc3cccc(S(=O)(=O)C(F)(F)F)c3)C2)C1` on UniProtKB Q99685?
Data returned: 9.89

Data request: What reported pIC50 corresponds to `O=C(N1CC(c2nc(CC3(C(F)(F)F)CC3)no2)C1)N1CC2(CC(n3cnc(C4CC4)n3)C2)C1` on UniProtKB Q99685?
Data returned: 7.59

Data request: What reported pIC50 corresponds to `CP(C)(=O)c1ccc(CC2CC3(C2)CN(C(=O)N2CC4(CC(n5cnc(C6CC6)n5)C4)C2)C3)nc1` on UniProtKB Q99685?
Data returned: 6.98

Data request: What reported pIC50 corresponds to `O=C(N1CC2(CC(Cc3cnc(C(F)(F)F)cn3)C2)C1)N1CC2(CC(n3cnc(C4CC4)n3)C2)C1` on UniProtKB Q99685?
Data returned: 9.52

Data request: What reported pIC50 corresponds to `O=C(N1CC(CNS(=O)(=O)c2ccc(F)cc2C(F)(F)F)C1)N1CC2(CC(n3cnc(C4CC4)n3)C2)C1` on UniProtKB Q99685?
Data returned: 7.00

Data request: What reported pIC50 corresponds to `O=C(N1CC(OCc2ccc(S(=O)(=O)C(F)(F)F)cc2)C1)N1CC2(CC(n3cnc(C4CC4)n3)C2)C1` on UniProtKB Q99685?
Data returned: 8.36

Data request: What reported pIC50 corresponds to `CS(=O)(=O)c1cc(Cl)ccc1-c1ccc(C2CN(C(=O)N3CC4(CC(c5ccc(C(F)(F)F)nc5)C4)C3)C2)cn1` on UniProtKB Q99685?
Data returned: 6.85

Data request: What reported pIC50 corresponds to `O=C(N1CC2(CC(n3cnc(C4(O)CC4)n3)C2)C1)N1CC2(CC[C@H](Cc3cccc(S(=O)(=O)C(F)(F)F)c3)C2)C1` on UniProtKB Q99685?
Data returned: 9.68

Data request: What reported pIC50 corresponds to `O=C(N1CC2(CC(Cc3ccc(F)cn3)C2)C1)N1CC2(CC(n3cnc(C4CC4)n3)C2)C1` on UniProtKB Q99685?
Data returned: 8.70

Data request: What reported pIC50 corresponds to `O=C(N1CC2(CC(n3cnc(C4CC4)n3)C2)C1)N1CC2(C1)CN(S(=O)(=O)c1cccc3nonc13)C2` on UniProtKB Q99685?
Data returned: 7.82

Data request: What reported pIC50 corresponds to `O=C(N1CC2(CC(Cc3ccc4[nH]ncc4n3)C2)C1)N1CC2(CC(n3cnc(C4(O)CC4)n3)C2)C1` on UniProtKB Q99685?
Data returned: 7.40

Data request: What reported pIC50 corresponds to `COC(=O)C(C)(C)Cc1cccc(OC2CN(C(=O)N3CC4(CC(n5cnc(C6CC6)n5)C4)C3)C2)c1` on UniProtKB Q99685?
Data returned: 9.52

Data request: What reported pIC50 corresponds to `O=C(N1C[C@H]2C[C@H](Oc3ccc(C(F)(F)F)cc3)C[C@H]2C1)N1CC2(CC(n3cnc(C4CC4)n3)C2)C1` on UniProtKB Q99685?
Data returned: 8.32

Data request: What reported pIC50 corresponds to `CS(=O)(=O)c1ccc(-c2ccc(C3CN(C(=O)N4CC5(CC(c6ccc(C(F)(F)F)nc6)C5)C4)C3)cn2)c(Cl)c1` on UniProtKB Q99685?
Data returned: 6.42

Data request: What reported pIC50 corresponds to `O=C(N1CC(c2cc(F)c(OC(F)(F)F)c(F)c2)C1)N1CC2(CC(n3cnc(C4CC4)n3)C2)C1` on UniProtKB Q99685?
Data returned: 9.40

Data request: What reported pIC50 corresponds to `O=C(N1C[C@H]2C[C@H](Oc3ccc(OC(F)F)cc3F)C[C@H]2C1)N1CC2(CC(n3cnc(C4CC4)n3)C2)C1` on UniProtKB Q99685?
Data returned: 8.22

Data request: What reported pIC50 corresponds to `O=C(N1CC2(CC(Oc3ccnc(C(F)(F)F)n3)C2)C1)N1CC2(CC(n3cnc(C4CC4)n3)C2)C1` on UniProtKB Q99685?
Data returned: 8.74

Data request: What reported pIC50 corresponds to `O=C(N1CC2(CC(n3cnc(C4CC4)n3)C2)C1)N1CC2(C1)CN(S(=O)(=O)c1ccccc1C(F)(F)F)C2` on UniProtKB Q99685?
Data returned: 8.52

Data request: What reported pIC50 corresponds to `O=C(N1CC(Oc2cncc(C(F)(F)F)n2)C1)N1CC2(CC(n3cnc(C4CC4)n3)C2)C1` on UniProtKB Q99685?
Data returned: 7.00

Data request: What reported pIC50 corresponds to `CC(C)(Cc1cccc(OC2CN(C(=O)N3CC4(CC(n5cnc(C6CC6)n5)C4)C3)C2)c1)C(=O)O` on UniProtKB Q99685?
Data returned: 7.02

Data request: What reported pIC50 corresponds to `CC(C)(C)c1nc(C2CN(C(=O)N3CC4(CC(n5cnc(C6CC6)n5)C4)C3)C2)cs1` on UniProtKB Q99685?
Data returned: 8.19

Data request: What reported pIC50 corresponds to `CC(C)(C)c1nc(-c2ccc(C(=O)N3CC4(CC(n5cnc(C6CC6)c5)C4)C3)cc2)no1` on UniProtKB Q99685?
Data returned: 7.66

Data request: What reported pIC50 corresponds to `COc1cc(O[C@H]2C[C@@H]3CN(C(=O)N4CC5(CC(n6cnc(C7CC7)n6)C5)C4)C[C@@H]3C2)ccc1F` on UniProtKB Q99685?
Data returned: 8.23
